Provenance of the data: ChEMBL document CHEMBL4513216

Reported values of INHIBITION for individual entries
System: Plasmodium berghei
measurementDescription: Screen against P. berghei liver stage (PbLuc), transformed with Luciferase, at 10uM
Type: functional, HepG2
runConditions: tested at 10 uM
The whole screen tested about 69,000 compounds, of which about 8,600 (12%) showed an effect of 50% or more. The full list was thinned out, with strong results kept by preference.
experimentalEndpoint: INHIBITION (%)

INSERT INTO results (compound, measuredvalue) VALUES
  ('NC(=O)c1ccnc(N2CCCC(CO)(Cc3ccccc3)C2)c1 (stereo unspecified)', 10.1),
  ('CC(=O)NCc1cncc(C2CCCN2C2CCOCC2)n1 (stereo unspecified)', -4.15),
  ('CC(=O)N1CCCC1c1nccc(C)n1 (stereo unspecified)', 21.6),
  ('Cc1nonc1CN(C)Cc1cnn(-c2ccc(F)cc2)c1', -23.4),
  ('CC(C)c1nccc(CN(C)Cc2cccc(-n3cccn3)c2)n1', 6.9),
  ('CCN1C[C@@H]2C[C@H](C(=O)Nc3ccccc3)[C@H](C1)O2', 1.94),
  ('Cc1ccnn1CC(=O)N(C)Cc1cnn(-c2ccccc2)c1', 50.8),
  ('CC(=O)c1ccc(N2CCCC(CO)(Cc3ccccc3F)C2)nc1 (stereo unspecified)', 50.3),
  ('CC(=O)c1ccc(N2CCCC(CO)(Cc3ccccc3C)C2)nc1 (stereo unspecified)', 75.6),
  ('CC(=O)c1ccc(N2CCC3(CCC(=O)N(CCCO)C3)CC2)nc1', 30.9),
  ('O=C(Nc1cccnc1)[C@H]1C[C@H]2CN(S(=O)(=O)C3CC3)C[C@@H]1O2', 48.6);

###

Tested on: Plasmodium berghei
measurementDescription: Screen against P. berghei liver stage (PbLuc), transformed with Luciferase, at 10uM
Format: functional, HepG2
runConditions: tested at 10 uM
Hit rate of the full screen: of about 69,000 compounds, about 8,600 (12%) showed an effect of 50% or more. For the sample, strong results were picked, then their nearest neighbours and some compounds at random.
experimentalEndpoint: INHIBITION

INSERT INTO assay_data (molecule, experimentalendpoint, measuredvalue) VALUES
  ('CC(C)CN1CCc2[nH]cnc2C12CCN(C(=O)c1cncn1C)CC2', 'INHIBITION', '33.4%'),
  ('Cc1ocnc1C(=O)N1CCC2(CC1)c1nc[nH]c1CCN2CC(C)C', 'INHIBITION', '47.4%'),
  ('CC(C)CN1CCc2[nH]cnc2C12CCN(C(=O)c1cnn(C)c1)CC2', 'INHIBITION', '51.8%'),
  ('NC(=O)C(CNC(=O)Cc1ccc(F)cc1)Cc1ccc(F)cc1 (stereo unspecified)', 'INHIBITION', '29.2%'),
  ('CCOc1ccccc1OC1CCN(C(=O)c2c[nH]nn2)CC1', 'INHIBITION', '33.8%'),
  ('CC(C)CN1CCc2[nH]cnc2C12CCN(C(=O)c1cccnc1)CC2', 'INHIBITION', '16.6%'),
  ('c1cn2c(n1)CN(Cc1ccsc1)CC(Cn1cncn1)C2 (stereo unspecified)', 'INHIBITION', '49.7%'),
  ('CC(C)CN1CCc2[nH]cnc2C12CCN(C(=O)c1ccc[nH]1)CC2', 'INHIBITION', '33.4%'),
  ('O=C(Cc1ccc(F)cc1)N1CCCCC1c1ccn2ccnc2n1 (stereo unspecified)', 'INHIBITION', '7.39%'),
  ('CNC(=O)c1ccc(C2CN(C(=O)c3cncs3)CCO2)nc1 (stereo unspecified)', 'INHIBITION', '50%'),
  ('CNC(=O)c1ccc(C2CN(C(=O)c3scnc3C)CCO2)nc1 (stereo unspecified)', 'INHIBITION', '-5.71%');
